procedure-summary: Solubility test (shake 37° C., 24 h, HPLC)
Type: physicochemical
condition-notes: organic solvent or mixture, thermodynamic from solid, acetone, x ± s, n = 3, read-out: Solubility, Acetone
Param threshold (60 mg/mL) applies to solubility at 24 h; output true when value >= threshold, false when value < threshold.

Threshold query (solubility at 24 h >= 60 mg/mL) on C[C@H]1CCC/C=C/[C@@H]2C[C@H](OC(=O)OCc3cccc(F)c3)C[C@H]2[C@H](O)/C=C/C(=O)O1 [Compound B, reference compound]
false

###

A collection of molecules and their measured solubility at 24 h
procedure-summary: Solubility test (shake 37° C., 24 h, HPLC)
Type: physicochemical
condition-notes: organic solvent or mixture, thermodynamic from solid, acetone, x ± s, n = 3, read-out: Solubility, Acetone
Just so you know, I need the unit written after the number.

Solved cases (3 shown):
C[C@H]1CCC/C=C/[C@@H]2C[C@H](OC(=O)OCc3cncc(F)c3)C[C@H]2[C@H](O)/C=C/C(=O)O1 [Compound 4] :: 63.8 mg/mL
C[C@H]1CCC/C=C/[C@@H]2C[C@H](OC(=O)OCc3cccnc3)C[C@H]2[C@H](O)/C=C/C(=O)O1 [Compound 1, BFA-7-(pyridine-3-ylmethyl)carbonate] :: 68.7 mg/mL
C[C@H]1CCC/C=C/[C@@H]2C[C@H](OC(=O)OCc3ccccn3)C[C@H]2[C@H](O)/C=C/C(=O)O1 [Compound 2, BFA-7-(pyridine-2-ylmethyl)carbonate] :: 69.4 mg/mL

Now look at this one.
Hello, please tell me recorded solubility at 24 h for this one: COc1ccc(COC(=O)O[C@@H]2C[C@H]3[C@H](O)/C=C/C(=O)O[C@@H](C)CCC/C=C/[C@@H]3C2)cn1 [Compound 6]
70.6 mg/mL

meta.source: patent US12522590B2
